System: SKMEL-5 melanoma
MEASUREMENT_NOTES: MTT cytotoxicity assay, SKMEL-5
EXPERIMENTAL_CONDITIONS: Homo sapiens, SK-MEL-5, […], read-out: Cytotoxicity ED50, SKMEL-5
Consider the following compounds and their measured IC50 readings.
All answers are understood in µM, so give the number only.

Use the examples below as a reference point.
# COMPOUND, IC50, µM
rows = [
    ("COc1cc(/C=C/c2ccc(OC(C)=O)cc2)cc(OC)c1OC", 4.6),
    ("COc1cc(CCc2ccc(N(C)C)cc2)cc(OC)c1OC", 0.059),
    ("COc1cc(/C=C\\c2ccc(O)cc2)cc(OC)c1OC", 2.27),
    ("COc1ccc(C(O)c2cc(OC)c(OC)c(OC)c2)cc1 (stereo not drawn)", 1.5),
    ("COc1cc(/C=C\\c2cccnc2)cc(OC)c1OC", 6),
]

Query :: Value lookup for IC50; key = COc1cccc(/C=C\c2cc(OC)c(OC)c(OC)c2)c1
Result :: 0.06

Query :: Value lookup for IC50; key = COc1cc(/C=C/c2ccc(C(C)C)cc2)cc(OC)c1OC [16f]
Result :: 11.1

----------
Consider the following compounds and their measured pIC50 readings.
System: MCF-7 breast carcinoma
MEASUREMENT_NOTES: MTT cytotoxicity assay, MCF-7
EXPERIMENTAL_CONDITIONS: Homo sapiens, MCF7, […], read-out: Cytotoxicity ED50, MCF-7
Entry type: numeric. Quantity: pIC50, the -log10 of concentration in molar units.

Use the examples below as a reference point.
# COMPOUND, MEASURED_ATTRIBUTE, MEASURED_VALUE
measured = [
    ("CCN(CC)CCOC(=O)/C(=C/c1ccc(OC)cc1)c1cc(OC)c(OC)c(OC)c1 [24e]", "pIC50", 5.68),
    ("COc1ccc(/C(=C\\c2cc(OC)c(OC)c(OC)c2)C(=O)O)cc1 [23c]", "pIC50", 5.72),
    ("CCNC(=O)/C(=C/c1ccc(OC)cc1)c1cc(OC)c(OC)c(OC)c1 [compound 24d]", "pIC50", 5.43),
]

Query :: Value lookup for pIC50; key = COc1cc(/C=C\c2ccc(C(C)C)cc2)cc(OC)c1OC [compound 15f]
Result :: 8.85

Query :: Value lookup for pIC50; key = COc1cc(/C=C/c2ccc(C)cc2)cc(OC)c1OC [16d]
Result :: 5.72

Query :: Value lookup for pIC50; key = COc1cc(/C=C/c2ccc(C(C)C)cc2)cc(OC)c1OC [16f]
Result :: 4.74

Query :: Value lookup for pIC50; key = COc1ccc(/C=C/c2cc(OC)cc(OC)c2)cc1 [16i]
Result :: 5.01

Query :: Value lookup for pIC50; key = COc1cccc2c1C(=O)c1c(O)c3c(c(O)c1C2=O)C[C@@](O)(C(=O)CO)C[C@@H]3O[C@H]1C[C@H](N)[C@H](O)[C@H](C)O1 [Adriamycin, reference compound]
Result :: 7.51

Query :: Value lookup for pIC50; key = COc1ccccc1/C=C/c1cc(OC)c(OC)c(OC)c1
Result :: 4.74

Query :: Value lookup for pIC50; key = CNC(=O)/C(=C/c1ccc(OC)cc1)c1cc(OC)c(OC)c(OC)c1 [compound 24c]
Result :: 7.30

Measured values drawn from patent US5430062A for this set.
